Tested on: HCT-116 colon
experiment notes: NCI tumour cell line growth inhibition, 48 h
readout kind: log10 of TGI (log10 of the value in µM)
A difference of one corresponds to tenfold TGI; all values are log10 with TGI in µM.

Prompt: Entry `CN(C)CC(C)(C)C(=O)/C=C/c1ccc(/C=C/C(=O)C(C)(C)CN(C)C)cc1` has what log10 of TGI?
Completion: 0.41

Prompt: Entry `C=C1C(=O)O[C@@H]2C[C@@H](C)[C@@H]3C=CC(=O)[C@@]3(C)[C@@H](OC(=O)CC(=O)O[C@H]3[C@@H]4C(=C)C(=O)O[C@@H]4C[C@@H](C)[C@@H]4C=CC(=O)[C@]43C)[C@H]12` has what log10 of TGI?
Completion: -1.40

Prompt: Entry CCCN(CCCC(NC(C)=O)C(=O)NCc1ccccc1)C(=O)N(CCCl)N=O (stereo not given) has what log10 of TGI?
Completion: 1.46

Prompt: Entry `C#CCOc1cccc(-c2ncnc3cc(NC(=O)CCl)ccc23)c1` has what log10 of TGI?
Completion: 0.17

Prompt: Entry `CN(C)CCNC(=O)c1cccc2c(NCCN(C)C)c3ccccc3nc12` has what log10 of TGI?
Completion: 0.59

Prompt: Entry CC[N+](CC)=c1sc2c(s1)C(c1ccc(Cl)cc1)Oc1ccc(Cl)cc1-2 (stereo not given) has what log10 of TGI?
Completion: 0.28

Prompt: Entry `COc1ccc2c(C)cc(N/N=C/c3ccc(OC)c4ccccc34)nc2c1` has what log10 of TGI?
Completion: 1.26

Prompt: Entry `COc1cc(NC(N)=NCCC(C)(C)Oc2ccc(C(F)(F)F)cc2)ncc1C#N` has what log10 of TGI?
Completion: 0.45

----------
System: A498 renal
experiment notes: NCI tumour cell line growth inhibition, 48 h
readout kind: TGI (µM)
Hi! Could you send only the number? It should be in µM, unit omitted.

Prompt: Entry `COC(=O)[C@@H](C)C[C@H](Cc1ccccc1)NC(=O)c1csc(CC[C@H](C(C)C)N(C)C(=O)[C@@H](NC(=O)[C@H]2CCCCN2C)C(C)C)n1` has what TGI?
Completion: 1.56

Prompt: Entry `CCCCCC[N+](C)(C)Cc1ccc(C[N+](C)(C)CCCCCC)cc1` has what TGI?
Completion: 38.9

----------
Test system: RPMI-8226 leukemia
experiment notes: NCI tumour cell line growth inhibition, 48 h; in the data active means GI50 below about 0.43 µM; inactive means the rest
Parameter call: string, one of active, inactive

Prompt: Can you look up the reported call for `COc1cccc(-c2cc(=O)c3cc(OC)ccc3[nH]2)c1` for me?
Completion: active

Prompt: Can you look up the reported call for `Cc1sc2nc(-c3ccncc3)c(/C=N/N=C(N)N)n2c1C` for me?
Completion: inactive

Prompt: Can you look up the reported call for `CC(=O)[O][Ga]([Cl])[O]C(C)=O` for me?
Completion: inactive

Prompt: Can you look up the reported call for `COc1cc(-c2cc3ncccc3c3nc(N)c4cccnc4c23)cc(OC)c1OC` for me?
Completion: inactive

Prompt: Can you look up the reported call for Nc1ccc(C2=NN(c3ccccc3)C(c3ccc(Cl)cc3)C2)cc1 (stereo unspecified) for me?
Completion: inactive

Prompt: Can you look up the reported call for `[Cl][Hg][Cl]` for me?
Completion: inactive

Prompt: Can you look up the reported call for `CN(C)CCCOc1ccc(-c2ccc3ncc4c(c3c2)n(C2CCOCC2)c(=O)n4C)cn1` for me?
Completion: inactive

Prompt: Can you look up the reported call for `C[N-]c1nnnn1C.[Au+].c1ccc([PH+](c2ccccc2)c2ccccc2)cc1` for me?
Completion: inactive

Prompt: Can you look up the reported call for CC[N+](CC)=c1sc2c(s1)C(c1ccc(Cl)cc1)Oc1ccc(Cl)cc1-2 (stereo unspecified) for me?
Completion: inactive

Prompt: Can you look up the reported call for `O=S(=O)(Nc1ccccc1Cl)c1ccc(-c2cnc(C3CC3)o2)cc1` for me?
Completion: inactive

Prompt: Can you look up the reported call for `COC(=O)[C@@H](C)C[C@H](Cc1ccccc1)NC(=O)c1csc(CC[C@H](C(C)C)N(C)C(=O)[C@@H](NC(=O)[C@H]2CCCCN2C)C(C)C)n1` for me?
Completion: active

----------
So I've got a bunch of compounds here, and I need their TGI values.
Tested on: HOP-62 NSCLC
experiment notes: NCI tumour cell line growth inhibition, 48 h
Where a SMILES comes first, the peptide text is derived from it. The star is where a group is joined. Boc = CC(C)(C)OC(=O)*

Prompt: Entry `C=C1C(=O)O[C@H]2C[C@@H]1CC/C(C)=C/CC/C(C)=C/CC[C@H]2C` has what TGI?
Completion: 27.1 µM

Prompt: Entry S=C(NC1=NCC(CN2CCN(c3ccccc3)CC2)O1)Nc1ccccc1 (stereo unspecified) has what TGI?
Completion: > 100 µM

Prompt: Entry Cc1[nH]c2ccccc2c1C(=O)CC1(O)C(=O)Nc2ccccc21 (stereo unspecified) has what TGI?
Completion: > 100 µM

Prompt: Entry CCC[CH2][Sn]1([CH2]CCC)[O]CC(Cc2ccccc2)[O]1 (stereo unspecified) has what TGI?
Completion: 19.4 µM

Prompt: Entry `COC(=O)CCc1c[nH]c2ccc(N(CCCl)CCCl)cc12` has what TGI?
Completion: 16.5 µM

Prompt: Entry CCN(CC)CC1CCCCN1CC(=O)N1c2ccccc2NC(=O)CC1C (stereo unspecified) has what TGI?
Completion: > 100 µM

Prompt: Entry COCCCNC(=O)C1C(=O)N(CCCOC)C(=O)/C1=N\N (stereo unspecified) has what TGI?
Completion: > 100 µM

Prompt: Entry `CCCC(=O)NC1=C(Cl)C(=O)c2ccccc2C1=O` has what TGI?
Completion: 25.7 µM

Prompt: Entry `O=c1nc(/C=C/c2ccccc2Cl)cc2n1CCN2CCO` has what TGI?
Completion: > 100 µM

Prompt: Entry COC(=O)C(Cc1c[nH]c2ccccc12)NC(=O)C(Cc1c[nH]c2ccccc12)NC(=O)C(Cc1c[nH]c2ccccc12)NC(=O)C(Cc1c[nH]c2ccccc12)NC(=O)C(Cc1c[nH]c2ccccc12)NC(=O)C(Cc1c[nH]c2ccccc12)NC(=O)OC(C)(C)C (stereo unspecified) (Boc-WWWWWW-OMe; configuration not given here) has what TGI?
Completion: > 100 µM

Prompt: Entry `CCCSc1ccc2[nH]c(N3C(=O)/C(=C/c4ccco4)N=C3c3ccccc3)cc2c1` has what TGI?
Completion: > 50 µM

----------
System: MOLT-4 leukemia
experiment notes: NCI tumour cell line growth inhibition, 48 h; in the data active = GI50 below about 0.43 µM; inactive = the rest
Parameter call: string, one of true (1) for active, false (0) for inactive

Prompt: Can you look up the reported call for `COC(=O)CCc1c[nH]c2ccc(N(CCCl)CCCl)cc12` for me?
Completion: false (0)

Prompt: Can you look up the reported call for Cc1ccc(C)c2c1C(O)(C#Cc1ccccc1)c1ccccc1C2(O)C#Cc1ccccc1 (stereo not given) for me?
Completion: false (0)

Prompt: Can you look up the reported call for `COc1cc(OC)cc(N(CCNC(C)C)c2ccc3ncc(-c4cnn(C)c4)nc3c2)c1` for me?
Completion: false (0)

Prompt: Can you look up the reported call for `COC(=O)[C@@H](C)C[C@H](Cc1ccccc1)NC(=O)c1csc(CC[C@H](C(C)C)N(C)C(=O)[C@@H](NC(=O)[C@H]2CCCCN2C)C(C)C)n1` for me?
Completion: false (0)

Prompt: Can you look up the reported call for `[Cl][Hg][Cl]` for me?
Completion: false (0)

Prompt: Can you look up the reported call for CC[N+](CC)=c1sc2c(s1)C(c1ccc(Cl)cc1)Oc1ccc(Cl)cc1-2 (stereo not given) for me?
Completion: false (0)

Prompt: Can you look up the reported call for `COc1cc(-c2cc3ncccc3c3nc(N)c4cccnc4c23)cc(OC)c1OC` for me?
Completion: false (0)

Prompt: Can you look up the reported call for `Cc1cc(S(=O)(=O)Nc2nc3cscc3c(=O)n2Cc2ccccc2)c(S)cc1Cl` for me?
Completion: false (0)

Prompt: Can you look up the reported call for `O=C(CO[N+](=O)[O-])Nc1ccc(C(=O)/C=C/c2ccc(Cl)cc2)cc1` for me?
Completion: false (0)

Prompt: Can you look up the reported call for `CCC[CH2][Sn]([CH2]CCC)([CH2]CCC)[O]c1ccc(Cl)cc1Cl` for me?
Completion: true (1)

Prompt: Can you look up the reported call for CCC[CH2][Sn]1([CH2]CCC)[O]CC(Cc2ccccc2)[O]1 (stereo not given) for me?
Completion: false (0)

Prompt: Can you look up the reported call for `Cc1nn(-c2nc3ccccc3[nH]2)c(N)c1-c1ccc(Cl)cc1` for me?
Completion: false (0)

Prompt: Can you look up the reported call for `O=S(=O)(Nc1ccccc1Cl)c1ccc(-c2cnc(C3CC3)o2)cc1` for me?
Completion: false (0)

Prompt: Can you look up the reported call for `OCc1ccc(-c2ccc(-c3ccc(CO)o3)[se]2)o1` for me?
Completion: false (0)

Prompt: Can you look up the reported call for `Clc1nc(Cl)c2ncn(Cc3cccc(Cn4cnc5c(Cl)nc(Cl)nc54)c3)c2n1` for me?
Completion: false (0)

Every entry's value here was drawn from PubChem BioAssay (NCI).
